Entry source: patent US10653672B2

- System: C2C12 cells
- Test: Evaluation of myogenesis of C2C12 cells by fusion index
- Type: cell-based, mouse
- Protocol Conditions: Group 3; 10 μM; differentiation condition 72 hours; DMSO as 1; average of three
Metric: relative fusion index (FI)
Numbers only.

Hi there! I need relative fusion index (FI) for each item below, if you can.
1. CC(=O)c1c(/N=C/N(C)C)ncn1-c1ccc(C)cc1
2. Cc1ccc(-n2cnc(N(C)C)c2C(=O)c2ccccc2)cc1

Completion:
1.44
1.85

Please give relative fusion index (FI), item by item, for the list that follows.
1. Cc1ccc(-n2cnc(/N=C/N3CCOCC3)c2C(=O)c2ccccc2)cc1
2. CN(C)/C=N/c1ncn(-c2ccc(Br)cc2)c1C(=O)c1ccccc1
3. O=C(c1ccccc1)c1c(/N=C/N2CCOCC2)ncn1-c1ccc(Br)cc1
4. Cc1ccc(-n2cnc(N)c2C#N)cc1

Completion:
[1.76, 1.63, 1.60, 1.44]
